Every entry's value here was drawn from PubChem BioAssay (NCI).

tested on: ACHN renal; test: NCI-60 one-dose screen, 48 h; settings: 10 µM unless noted
Compounds without any hit were thinned out: in the full panel of roughly 83,000, 20% have a hit. Calls of active or inactive are those of the source. The calls were made as follows: active = growth percent below 10; inactive = the rest.
Outcomes: t for active, f for inactive

MOLECULE	CLASS
Nc1ccc(C(=O)CSc2nc3ccccc3[nH]2)cc1	f
Cc1nc2cncc(C#Cc3cncc(C(=O)Nc4ccc(CN5CCN(C)CC5)c(C(F)(F)F)c4)c3)c2nc1C	t
COc1cc(-c2nn(-c3cccc(NC(=O)Nc4ccc(Cl)c(Cl)c4)c3)cc2-c2ccncc2)ccc1Cl	f
Brc1cccc(-c2cc(-c3ccc4nccnc4c3)[nH]n2)c1	f
O=C1Nc2ccc(Cl)cc2C12Nc1cc(Cl)ccc1S2 (stereo not given)	f

====

test system: HOP-62 NSCLC; assay: NCI-60 one-dose screen, 48 h (100 = growth as untreated, 0 = no growth, -100 = all killed); conditions: 10 µM unless noted
About 83,000 compounds went through this panel and 20% of them were active in at least one assay; those are over-represented in the sample as a whole.
Each entry below carries its recorded growth.

COMPOUND	growth, %
O=C(Nc1cccc(-n2cc(-c3ccncc3)c(-c3ccc(Cl)c(O)c3)n2)c1)Nc1cccc(C(F)(F)F)c1	38.1
CCN(CC)CCC(CNc1ccnc2cc(Cl)ccc12)c1ccccc1 (stereo not given)	78.4
CN1CCN(Cc2ccc(NC(=O)c3nc4ccc5[nH]ncc5c4c4c3CCC4)cc2C(F)(F)F)CC1	-78.7
O=C(O)/C=C/C(=O)c1ccc(Cl)cc1	112
Clc1ccc(-c2nc3ccccc3s2)cc1Cl	104
CCN(CC)c1ccc2[nH]c3c(C(N)=O)cc(=O)c(=O)c=3oc2c1	-11.8
Cc1ccc(S(=O)(=O)NCCNc2nccc(-c3c(-c4ccc(O)cc4)nc4sccn34)n2)cc1	113
COc1cc(-c2nc(-c3nc4ccc(Cl)cc4[nH]3)cc3c2[nH]c2ccccc23)cc(OC)c1OC	83.7
COc1cc(Nc2ncccc2C(=O)NCc2cn(Cc3cccc(Oc4ccccc4)c3)nn2)cc(OC)c1	56.6
O=[N+]([O-])c1cc(S(=O)(=O)Oc2ccccc2)ccc1Cl	54

====

Each entry below carries its recorded growth.
system: LOX IMVI melanoma; assay: NCI-60 one-dose screen, 48 h (100 = growth as untreated, 0 = no growth, -100 = all killed); details: 10 µM unless noted
About 83,000 compounds went through this panel and 20% of them were active in at least one assay; those are over-represented in the sample as a whole.
PARAMETER: growth (%)

COMPOUND	TARGET	PARAMETER	UNIT_OF_MEASUREMENT	ENDPOINT_VALUE
CC[N+](CC)=c1cc2oc3cc(N(C)C)ccc3nc-2cc1C	LOX IMVI melanoma	growth	%	16.8
CCN1CCN(CC(=O)N2c3cccc4cccc(c34)N(C(=O)CN3CCN(CC)CC3)C2c2cn(-c3ccccc3)nc2-c2cccc([N+](=O)[O-])c2)CC1	LOX IMVI melanoma	growth	%	-82.1
CCCCN(CCCC)c1ccc(C(=N)c2ccc(N(CCCC)CCCC)cc2)cc1	LOX IMVI melanoma	growth	%	-97.2
CCCCCCCCCCCC(=O)NCCC[N+](C)(C)CC(=O)[O-]	LOX IMVI melanoma	growth	%	79.8
CN(C)CC(C(=O)c1ccccc1)c1ccccc1 (centres undefined)	LOX IMVI melanoma	growth	%	3.08
C=C1CCC2C3(C)COC(c4ccccc4)OC3CCC2(C)C1/C=C/C1=CCOC1=O (centres undefined)	LOX IMVI melanoma	growth	%	16.1
COc1cc(-c2nn(-c3cccc(NC(=O)Nc4ccc(Cl)c(Cl)c4)c3)cc2-c2ccncc2)ccc1Cl	LOX IMVI melanoma	growth	%	1.38
COc1ccc(/C=C2/C(=O)NC(SCC(=O)N3CCN(c4cc5c(cc4F)c(=O)c(C(=O)O)cn5C4CC4)CC3)=NC2N)cc1OC (centres undefined)	LOX IMVI melanoma	growth	%	103
Cc1c(C(=O)/C=C/c2csc3ccccc23)[n+](=O)c2ccccc2n1[O-]	LOX IMVI melanoma	growth	%	34.1
